- system-under-test: 72 kDa type IV collagenase (Homo sapiens)
- Sequence (P08253 whole entry): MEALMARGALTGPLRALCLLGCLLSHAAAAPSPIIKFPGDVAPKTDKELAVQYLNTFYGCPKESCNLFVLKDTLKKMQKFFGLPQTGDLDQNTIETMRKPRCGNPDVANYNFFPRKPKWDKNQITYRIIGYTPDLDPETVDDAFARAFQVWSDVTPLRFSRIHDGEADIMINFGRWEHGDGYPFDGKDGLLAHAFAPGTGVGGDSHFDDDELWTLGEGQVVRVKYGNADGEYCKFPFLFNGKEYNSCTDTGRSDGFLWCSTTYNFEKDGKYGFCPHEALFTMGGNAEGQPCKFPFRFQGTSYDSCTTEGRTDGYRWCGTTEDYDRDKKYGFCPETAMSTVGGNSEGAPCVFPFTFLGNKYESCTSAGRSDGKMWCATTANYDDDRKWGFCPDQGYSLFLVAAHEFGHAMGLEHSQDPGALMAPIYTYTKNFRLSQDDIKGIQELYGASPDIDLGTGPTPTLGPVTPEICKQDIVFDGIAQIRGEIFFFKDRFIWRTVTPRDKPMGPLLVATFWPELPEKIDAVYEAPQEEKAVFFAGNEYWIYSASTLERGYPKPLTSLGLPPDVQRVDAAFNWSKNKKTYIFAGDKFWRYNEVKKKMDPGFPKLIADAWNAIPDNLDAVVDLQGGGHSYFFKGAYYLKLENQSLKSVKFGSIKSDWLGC
- test-protocol: Dose Response validation of uHTS RPN11 inhibitor hits using a MMP-2 Fluorescence assay.
- Format: functional
Calls of active or inactive are those of the source. Rule as the data show it: actives have a measured IC50 and inactives only a lower limit.
Field 'call' accepts true (1) = active, false (0) = inactive

Problem: Hi, sorry to bother you, what did the test record for CCOC(=O)C1=C(Nc2ccc(OC)cc2)S/C(=C\c2ccc(-c3ccccc3C(=O)O)o2)C1=O ?
Result: false (0)

Problem: Consider next the compound CCc1ccccc1OCC(=O)Nc1ccc(N2CCCC2)cc1C in the same way.
Result: true (1)

Problem: Consider next the compound C#CCOCCOCCOCCNc1nc(N2CCN(C(=O)CCCCCCCCCCNC(=O)[C@H](CCCCN)n3cc(C[C@@H](C)CC)nn3)CC2)nc(N2CCN(C(=O)CCCCCCCCCCNC(=O)[C@H](CCCCN)n3cc(C[C@@H](C)CC)nn3)CC2)n1 in the same way.
Result: false (0)

Problem: Consider next the compound O=C(N/N=C/c1cccnc1)c1ccc(NC(=O)c2cccc(Cl)c2)cc1 in the same way.
Result: false (0)
